Measured TGI, listed per entry.
# System: COLO 205 colon
# ASSAY_REMARKS: NCI tumour cell line growth inhibition, 48 h

COC1/C=C\C=C(/C)C(=O)NC2=CC(=O)C=C(C2=O)C(OC)C(C)CC(OC)C(OC)C(C)/C=C(/C)C1OC(N)=O (stereo not drawn)
11.4 µM
Cc1cccc(CN(C)c2ccc(CO)c(Cl)c2)c1
17.7 µM
CC1C2Cc3ccc(O)cc3C1(C)CCN2C (stereo not drawn)
> 100 µM
C#CCNC(=O)CCC(N)C(=O)O (stereo not drawn)
> 100 µM
CC(C)c1cc(C(C)C)c(S(=O)(=O)NN)c(C(C)C)c1
> 100 µM

// Cc1ccc2nc3c(C(=O)NCCN(C)C)cccc3cc2c1 : TGI value = 3.25 µM

Briefly, TGI measured for O=C1CCc2c3c(c4c([nH]c5ccccc54)c2CC1)C(=O)NC3=O : > 100 µM

According to the records, this compound COC1=C(OC)C(=O)C(/C=C(\C)C(=O)O)=C(C)C1=O displays TGI of > 100 µM

The reported TGI of the compound COc1cc2cc3c4c(cc(OC)c(OC)c4c2cc1OC)CCN3C(=O)CCCC(=O)O was > 100 µM

// sample NCCCNCCSSCc1ccccc1CSSCCNCCCN , its TGI was > 100 µM

Reported TGI of CCN(CC)CC(O)c1ccc2ccc3ccccc3c2c1 (stereo not drawn) : 29.9 µM
